The reported measurements were obtained from the Human Domainome abundance scans (Beltran et al. 2025).

Attribute: abundance fitness
B1: Dystrobrevin alpha, residues 235 to 294; numbered along this chain, Q9Y4J8 (parent)
chain: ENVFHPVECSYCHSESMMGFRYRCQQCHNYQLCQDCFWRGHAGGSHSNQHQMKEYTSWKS

Variants of: B1
Assay: abundance fitness (aPCA) (normalised: wild type 0, dead -1); higher = more abundant; growth selection in yeast, the domain comes from the species named
Conditions: Homo sapiens

Variant identifier	abundance fitness
N29R	-0.171
Y22M	-0.142
F37W	-0.051
W38N	0.308
G44F	-1.15
C12Q	-1
G40C	-0.227
S14N	-0.003
V7L	-0.045
S60C	-0.276
C36I	-0.733
Q31S	-0.007
Q34N	-0.146
A42D	-0.253
N2D	-0.599
N29G	-0.058
M52D	-0.471
D35P	0.025
H28E	0.063
H13K	-0.027
S14R	0.042
H13V	-0.457
R23K	0.147
H46P	-0.27
Q49A	0.073
G19T	-0.147
Q26N	0.022
R39E	0.074
R21A	-0.02
W58C	0.003
H5R	-0.176
S16E	-0.033
Q49N	0.019
Y55P	-0.078
H46R	-0.189
R21L	0.058
Y55T	0.104
F37I	-0.087
E15D	0.195
V3D	0.011
K53R	-0.111
W38M	0.37
E15Y	-0.23
S16F	-0.084
W58F	-0.021
F37Q	-0.003
Y55F	-0.155
R21T	0.088
R21F	-0.188
F37H	-0.092
F20D	0.106
V7R	-0.036
N2P	-0.09
G43I	-0.685
H28M	-0.008
H13G	-0.027
K53I	-0.111
G43N	0.121
Y22D	-0.814
Q31E	0.112
Q49L	-0.003
Y30S	-0.478
C9E	-0.908
G44D	0.077
R21G	-0.15
Y22H	-0.053
S60Y	-0.207
Y22L	-0.3
F37G	-0.348
E15T	0.034
S57C	0.074
R39Q	0.116
Y55L	0.06
N48A	0.007
V3L	0.096
D35W	-0.33
E15A	-0.041
D35Y	0.011
H46Y	-0.538
E15F	-0.133
C36M	-0.723
H41G	-0.312
C24W	-1.07
G43C	-0.034
E15L	-0.087
Y22I	-0.337
W58Q	-0.127
K59H	0.074
Y30W	-0.458
Q49I	-0.205
Y11S	-0.219
